B1: Lysine-specific demethylase 2B, residues 656 to 722; numbered along this chain, Q8NHM5 (parent)
chain: LPHTAVCLVCGEAGKEDTVEEEEGKFNLMLMECSICNEIIHPGCLKIKESEGVVNDELPNCWECPKC

# Variants of: B1
# assay text: abundance fitness (aPCA) (normalised: wild type 0, dead -1); higher = more abundant; growth selection in yeast, the domain comes from the species named
# measurement context: Homo sapiens
readout: abundance fitness
Returns: the value as a bare number; no unit string appended.

> print(dat)
   mutation.string            readout  observed
1             K48R  abundance fitness    -0.168

Short answer for `P59A` : abundance fitness was -0.117

Measured abundance fitness of `N60K` : -0.176
